Reference source: PubChem BioAssay (NCI)

# Tested on: SK-OV-3 ovarian
# experimental.protocol: NCI tumour cell line growth inhibition, 48 h
observed.property: TGI

Challenge: Supply TGI value. Item: CCOC1=CP(=O)(OCC)CC(C)=C1Cl (stereo not given)
Response given: > 100 µM

Challenge: Assign TGI to the following record: Cc1ccc(S(=O)(=O)O/N=C2\CCC\C2=C/c2ccccc2)cc1
Response given: > 100 µM

Challenge: Read off the recorded TGI for CCOC(=O)c1cc(NC(=O)c2cc(NC(=O)c3cc(NC(=O)c4c(-c5ccccc5)noc4C)cn3C)cn2C)cn1C
Response given: > 100 µM

Challenge: Indicate its recorded TGI; the compound in question is Nc1nc2c(c3cnccc13)C(c1cccc(Br)c1)Cc1cnccc1-2 (stereo not given)
Response given: 17.1 µM

Challenge: Read off the recorded TGI for Cn1cc(C2=C(Sc3ccccc3)C(=O)NC2=O)c2ccccc21
Response given: > 25 µM

Challenge: Please look at this compound and report its TGI: COc1cc(C(=O)/C=C/c2c(-c3cccs3)nc3sc(C)cn23)cc(OC)c1OC
Response given: 10.4 µM

Challenge: Answer with reported TGI of C/C(=N\N(C)C)C(CN1CCCCC1)C(c1ccccc1)c1c(O)c2ccccc2oc1=O (stereo not given)
Response given: > 100 µM

Challenge: Find the measured TGI of CN(C)c1ccc2nc3ccc(=N)cc-3sc2c1 and report it.
Response given: 38.7 µM

Challenge: Identify measured TGI corresponding to C[C@]12CCC3c4ccc(O)cc4CC[C@H]3C1CC(=O)N(CCN1CCCC1)C2=O (stereo not given in full)
Response given: > 10 µM

Challenge: Dear colleague, please send me the reported TGI for Nc1nc(N)nc(-c2ccccc2NS(=O)(=O)c2ccc([N+](=O)[O-])cc2)n1 when you can.
Response given: > 100 µM

* * *

Would you kindly list GI50 for each of these molecules?
# Tested on: A498 renal
# experimental.protocol: NCI tumour cell line growth inhibition, 48 h

Challenge: Indicate its recorded GI50; the molecule in question is CC[C@]12C=CCN3CC[C@]4(C(=C(C(=O)OC)C1)Nc1cc(OC)c(OC(C)=O)cc14)[C@@H]32
Response given: 133 nM

Challenge: Quote GI50 reported for COc1cccc2c1C(CO)N1C(C#N)C3CC(C(=O)O)C(C1C2)N3C (centres undefined) please.
Response given: 304 nM

Challenge: For the molecule Ic1ccc2[nH]cc(SSc3c[nH]c4ccc(I)cc34)c2c1 , report GI50.
Response given: 2060 nM

Challenge: Supply reported GI50 belonging to this molecule: CCCCCCCCCCCCCCCCCCOP(=O)([O-])OC1CC[N+](C)(C)CC1
Response given: 2000 nM

* * *

# Tested on: OVCAR-3 ovarian
# experimental.protocol: NCI tumour cell line growth inhibition, 48 h; in the data active = GI50 below about 0.43 µM; inactive = the rest
// classify into class 1 for active, class 0 for inactive

Challenge: Just curious, what result did CC1=C(SCCC(=O)OCC(=O)NCCC[Te]c2ccccc2)C(=O)c2ccccc2C1=O get here?
Response given: class 0

Challenge: What classification did COc1ccc2c(CCC(c3ccccc3)c3ccccc3)c3[n+](cc2c1OC)CCc1cc2c(cc1-3)OCO2 end up with in this test?
Response given: class 1

Challenge: Please state the recorded outcome for this compound: O=C(Cc1csc2nc(-c3ccc(Br)cc3)cn12)N/N=C/c1cc(Br)ccc1O
Response given: class 0

Challenge: Tell me the recorded outcome of this test for Cc1cc(OCc2n[nH]c(=S)n2/N=C/c2ccc(F)cc2)ccc1Cl .
Response given: class 0

Challenge: // outcome(item) with item = COc1cc(C(=O)/C=C/c2c(-c3cccs3)nc3sc(C)cn23)cc(OC)c1OC
Response given: class 0

Challenge: Give the logged outcome of this assay for the following compound: CC(=O)OCC1OC(OC2=C(CC=C(C)C)C(=O)c3ccccc3C2=O)C(OC(C)=O)C(OC(C)=O)C1OC(C)=O (stereo not drawn)
Response given: class 0

Challenge: Hello, I am checking results. What call was entered for CC(C)(O)c1coc(S(=O)(=O)/N=C(\O)Nc2c3c(cc4c2CCC4)CCC3)c1 ?
Response given: class 0

Challenge: How did this test come out for CCOC(=O)c1cc(NC(=O)c2cc(NC(=O)c3cc(NC(=O)c4c(-c5ccccc5)noc4C)cn3C)cn2C)cn1C ?
Response given: class 0

* * *

# System: HL-60(TB) leukemia
# experimental.protocol: NCI tumour cell line growth inhibition, 48 h
observed.property: TGI

Challenge: Supply TGI measured with HL-60(TB) leukemia for Cc1ccc(S(=O)(=O)O/N=C2\CCC\C2=C/c2ccccc2)cc1 .
Response given: > 100 µM

Challenge: Give TGI for C[C@]12CCC3c4ccc(O)cc4CC[C@H]3C1CC(=O)N(CCN1CCCC1)C2=O (stereo partly specified) tested on HL-60(TB) leukemia.
Response given: > 10 µM

Challenge: Specify TGI for Cc1ccc(C[N+](C)(C)N)cc1C , system HL-60(TB) leukemia.
Response given: > 10 µM

Challenge: GET TGI where system = HL-60(TB) leukemia and item = CC1=NC(C(=O)O)Cc2c1[nH]c1ccccc21 (stereo unspecified)
Response given: > 100 µM

Challenge: Under HL-60(TB) leukemia, report TGI for NC(=O)NN=C1C[C@H]2CCCC[C@H]2C1
Response given: > 100 µM

Challenge: GET TGI | system: HL-60(TB) leukemia | item: Cc1ccc(N(C)S(=O)(=O)c2ccc([N+](=O)[O-])cc2)cc1
Response given: > 100 µM

* * *

# System: SW-620 colon
# experimental.protocol: NCI tumour cell line growth inhibition, 48 h
observed.property: TGI

Challenge: Tell us which TGI value is on record for Cc1cc2c(c(C(N)=O)c1C)-c1cccc(Cl)c1C2=O
Response given: > 100 µM

Challenge: Quickly give me recorded TGI for CCN(CC)CCCNc1nc2ccccc2[n+]([O-])n1
Response given: > 100 µM

Challenge: Name the recorded TGI of the compound listed here: Cc1c(NC(=O)c2cc(C(N)=O)nc3cc(F)ccc23)c(C(F)(F)F)nn1Cc1ccc(C#N)cc1
Response given: > 100 µM

Challenge: Supply reported TGI belonging to this compound: O=C1c2ccccc2C(=O)N1C/C=N/NS(=O)(=O)c1ccc2ccccc2c1
Response given: > 100 µM

Challenge: Report TGI, nothing else, for this compound: COc1c(OCCCN2CCOCC2)ccc2c3n(c(=NC(=O)c4cnc(N)nc4)nc12)CCN3
Response given: > 100 µM

Challenge: Identify the reported TGI for the following entry. CN(C)CCNC(=O)c1ccc(Cl)c2c(Nc3ccc(S(=O)(=O)N=C(N)N)cc3)c3ccccc3nc12
Response given: 14.9 µM

Challenge: Query TGI for C[C@H](CCC(=O)NN)[C@H]1CC[C@H]2[C@@H]3CC[C@@H]4C[C@H](O)CC[C@]4(C)[C@H]3CC[C@]12C
Response given: > 100 µM

Challenge: # return recorded TGI for input Cc1ccc(S(=O)(=O)O/N=C2\CCC\C2=C/c2ccccc2)cc1
Response given: > 100 µM

Challenge: Report TGI, nothing else, for this compound: CCCCCCCCCCCCCCCCP(=O)(OC)OC
Response given: 28.2 µM

Challenge: Tell us which TGI value is on record for Nc1nc(-c2cccc3ccccc23)cc2ccccc12
Response given: 20 µM

Challenge: Using known records, supply TGI for COc1ccc2c(c1)O[C@@H]1c3ccc(OC)cc3OC[C@H]21
Response given: > 100 µM

Challenge: State its TGI for this compound: CC(=O)OCC1CCC(=C2C(=O)OC(C)(C)OC2=O)N1 (stereo not given)
Response given: > 100 µM

Challenge: Answer with the recorded TGI for the compound listed here: Cc1ccccc1N=Nc1cc(C)c(N=Nc2c(O)ccc3ccccc23)cc1C
Response given: > 100 µM

Challenge: Kindly indicate its recorded TGI. Item: COc1ccc(-c2[nH]c(=O)n(C3OC(CO)C(O)C(O)C3O)c(=O)c2C#N)cc1 (stereo not given)
Response given: > 100 µM

Challenge: Recall and state the measured TGI for N#CCCC1(CCC#N)CCc2ccccc2C1=O .
Response given: > 100 µM

Challenge: Answer with reported TGI of O=c1c2cc(I)ccc2nc(-c2cccs2)n1-c1ccc(S(=O)(=O)Nc2nccs2)cc1
Response given: > 100 µM

Challenge: In one line, give reported TGI of the entry COc1cc(C2c3cc4c(cc3OC(N3CCCCC3)C2C)OCO4)cc(OC)c1OC (stereo not given) .
Response given: > 55.4 µM

Challenge: Return reported TGI. Input compound: O=C1NC(=O)C(C(=O)C(=O)Nc2cccc(C(F)(F)F)c2)C(=O)N1
Response given: > 100 µM

Challenge: Please supply the value of reported TGI for the item CC[C@]12C=CCN3CC[C@]4(C(=C(C(=O)OC)C1)Nc1cc(OC)c(OC(C)=O)cc14)[C@@H]32
Response given: 10.5 µM

Challenge: Return the recorded TGI value; entry: CCc1cccc(C(C)C)c1NC(=O)C(=O)C1C(=O)NC(=O)NC1=O
Response given: > 100 µM

Challenge: Determine from records and report TGI for CCC[CH2][Sn]([CH2]CCC)([O]C(=O)Cc1ccc(F)cc1)[O]C(=O)Cc1ccc(F)cc1
Response given: 1.13 µM

Challenge: State its TGI: O=C(O)/C=N/NC(=S)NC1CCCCC1
Response given: > 100 µM

Challenge: Look up and state reported TGI for COc1cc2c(cc1OC)C(=O)/C(=C/c1ccccc1)CC2
Response given: > 100 µM

Challenge: Tell me measured TGI for O=C1C=Cc2cscc21 please.
Response given: > 100 µM

Challenge: Tell me measured TGI for c1ccc(N=C2SC(c3ccccc3)(c3ccccc3)c3ccccc32)cc1 please.
Response given: > 100 µM

Challenge: Fill in TGI for record CN1C(NN)=NS(=O)(=O)c2ccccc21
Response given: > 100 µM

Challenge: Respond only with TGI recorded for OCCNc1ncnc2nc[nH]c12
Response given: > 100 µM

Challenge: Please give measured TGI of the following entry: C[N+]1(C)C/C(=C/c2ccc(F)cc2)C(=O)/C(=C\c2ccc(F)cc2)C1
Response given: > 100 µM

Challenge: Write down TGI measured for item Cn1cc(C2=C(Sc3ccccc3)C(=O)NC2=O)c2ccccc21
Response given: > 16.5 µM

Challenge: Dear colleague, please send me the reported TGI for COc1cc(/C=C/C(=O)c2cc(OC)c(OC)c(OC)c2)ccc1Oc1nc2c(c(=O)n(C)c(=O)n2C)n1C when you can.
Response given: 3.46 µM
